Values from patent US7312045B2

Measured IC50 (aggrecanase-2 (Homo sapiens, UniProt Q9UNA0))
Value type: IC50 (nM)

CC(C)C[C@@H](CC(=O)NO)C(=O)N[C@@H](Cc1ccc2ccccc2c1)C(=O)N[C@@H](C)C(N)=O :: 102
CC(C)C[C@@H](CC(=O)NO)C(=O)N[C@@H](CC(C)C)c1ncc(-c2ccccc2)[nH]1 :: 118
CC(C)(C)C(NC(=O)C(Cc1ccc2ccccc2c1)[C@H](O)C(=O)NO)C(N)=O (stereo partly drawn) :: 38
